Settings: buffer; pH 7.4; 200.0 µM
parameter: solubility kinetic (µg/mL)
Output spec: scalar in µg/mL, unitless text.

# compound `CC#CC[N+](C)(C)CCCCCC.[Cl-]` ; its solubility kinetic = 27.8

# compound `Cc1cc(NC(=O)c2ccc(-c3ccccc3F)o2)no1` ; its solubility kinetic = 0.6

# compound `CCOc1ccc(S(=O)(=O)n2cnc(C)c2)cc1` ; its solubility kinetic = 38.5

# compound `O=C(N/C(=C/c1ccco1)C(=O)N1CCc2ccccc21)c1ccco1` ; its solubility kinetic = 4.4

###

Settings: buffer; pH 7.4; 200.0 µM
Collected solubility kinetic values appear next to each entry.

These solved cases illustrate the format of a correct answer.
- compound: "Cc1nc2sccc2c(=O)n1N"
  parameter: "solubility kinetic"
  result: "> 27.2 µg/mL"
- compound: "CNC(=O)Cn1nc(C)c(S(=O)(=O)N2CCOCC2)c1C"
  parameter: "solubility kinetic"
  result: "> 47.5 µg/mL"
- compound: "CCCCN(Cc1cc2cc(C)ccc2[nH]c1=O)C(=O)c1ccccn1"
  parameter: "solubility kinetic"
  result: "> 52.4 µg/mL"
- compound: "Cc1ccc(S(=O)(=O)N2CCOCC2)cc1NC(=O)CN1C(=O)NC2(CCCC2)C1=O"
  parameter: "solubility kinetic"
  result: "> 67.6 µg/mL"
- compound: "COc1ccc(CNC(=O)CSc2cccc3cccnc23)cc1"
  parameter: "solubility kinetic"
  result: "> 50.8 µg/mL"
- compound: "O=C(/C=C/c1ccc(F)cc1)NCCCn1ccnc1"
  parameter: "solubility kinetic"
  result: "> 41 µg/mL"
- compound: "CCn1c(=O)ccc2cc([N+](=O)[O-])ccc21"
  parameter: "solubility kinetic"
  result: "> 32.7 µg/mL"
- compound: "COc1ccc(/C=N/NC(=O)CNC(=O)c2ccncc2)cc1"
  parameter: "solubility kinetic"
  result: "> 46.8 µg/mL"
- compound: "CN1C(=O)C(c2ccccc2[N+](=O)[O-])C(=O)c2ccccc21 (stereo unspecified)"
  parameter: "solubility kinetic"
  result: "> 44.4 µg/mL"
- compound: "Cc1ccc(NC(=S)NCCN2CCOCC2)cc1F"
  parameter: "solubility kinetic"
  result: "> 44.6 µg/mL"

# compound Cc1ccc(-c2nc(CN(C)C3CCOC3)c(C)o2)s1 (stereo unspecified) ; its solubility kinetic = > 43.9 µg/mL

# compound `COc1ccc2c(c1)[C@@]13CCC=C[C@H]1[C@@H](C2)NCC3.Cl` ; its solubility kinetic = > 43.8 µg/mL

# compound `CC(C)Oc1c(N2CCOCC2)c(=O)c1=O` ; its solubility kinetic = > 33.8 µg/mL

# compound `CCCC(=O)N1CCC(O)(c2cccc(F)c2)CC1` ; its solubility kinetic = > 39.8 µg/mL

# compound `CN(C)C1(CNC(=O)Nc2ccccc2)CCCCC1` ; its solubility kinetic = > 41.3 µg/mL

###

Collected solubility kinetic values appear next to each entry.
Settings: buffer; pH 7.4; 200.0 µM
Output spec: scalar in mg/mL, unitless text.

- molecule: "CC1(C)CC(=O)C(C(O)c2ccccc2)C(C)(C)N1 (stereo unspecified)"
  result-number: 0.0352
- molecule: "COc1ccc(NC(=O)Cc2ccc(Cl)cc2Cl)cn1"
  result-number: 0.0338
- molecule: "Fc1ccc(CNc2ncnc3cc(Cl)ccc23)cc1"
  result-number: 0.0035
- molecule: "Cc1ccc(SCc2ccc(C(=O)N3CCCC3)cc2)cc1"
  result-number: 0.031

Consider now this further molecule.
# molecule Cn1cnc([N+](=O)[O-])c1SCC(O)CCl (stereo unspecified) ; its solubility kinetic = 0.0365
